Test: Metabolism in rat liver (9,000xg supernatant fraction with NADPH)
Format: in vitro ADME
Details: 10 ug/ml, 37° C., 1 hr, rat liver 9,000xg supernatant with NADPH generating solution
Description: In order to evaluate the extent of metabolism of the compounds of formula 1, the metabolism in rat liver was studied as below similar to the reported method (C. L. Litterist, E. G. Mimnaugh, R. I. Reagan and T. G. Gram., Drug. Metabol. Disposit., 1975, 3, 259-265). In short, the disappearance of compounds after incubation in 9, 000×g supernatant fraction of rat liver homogenate in the presence of NADPH (reduced nicotinamide adenine dinucleotide phosphate) was evaluated. […]
We use 80% as the dividing line for remnants (%): on or above the line is Yes, below is No.

Ask: Could you verify whether the entry CCCOc1ccc(S(=O)(=O)NCc2ccncc2)cc1-c1nc2c(CCC)nn(C)c2c(=O)[nH]1 [Example 44] shows remnants (%) of no less than 80%?
Result: No

Ask: Please answer likewise for CCOc1ccc(S(=O)(=O)NCCC2CCCN2C)cc1-c1nc2c(CC(C)C)nn(C)c2c(=O)[nH]1 (stereo not shown) [Example 70]
Result: Yes

Ask: Also, CCCOc1ccc(S(=O)(=O)NCC2CCCN2C)cc1-c1nc2c(CCC)nn(C)c2c(=O)[nH]1 (stereo not shown) [Example 56] please.
Result: Yes

Ask: Also need CCOc1ccc(S(=O)(=O)NCc2ccccn2)cc1-c1nc2c(CC(C)C)nn(C)c2c(=O)[nH]1 [Example 51] , thanks.
Result: No

Ask: Now the molecule CCCOc1ccc(S(=O)(=O)NCCC2CCCN2C)cc1-c1nc2c(CCC)nn(C)c2c(=O)[nH]1 (stereo not shown) [Example 68]
Result: Yes

Ask: How about CCOc1ccc(S(=O)(=O)NCC2CCCN2C)cc1-c1nc2c(CC(C)C)nn(C)c2c(=O)[nH]1 (stereo not shown) [Example 58] ?
Result: Yes

Ask: Again, but for CCOc1ccc(S(=O)(=O)NCC2CCN(C)C2)cc1-c1nc2c(CC(C)C)nn(C)c2c(=O)[nH]1 (stereo not shown) [Example 62]
Result: Yes

Ask: And CCCOc1ccc(S(=O)(=O)NCc2cccnc2)cc1-c1nc2c(CCC)nn(C)c2c(=O)[nH]1 [Example 49] ?
Result: No

Ask: Okay, and CCOc1ccc(S(=O)(=O)Nc2ccncc2)cc1-c1nc2c(CC(C)C)nn(C)c2c(=O)[nH]1 [Example 37] ?
Result: Yes

Ask: One more molecule: CCOc1ccc(S(=O)(=O)NCc2ccncc2)cc1-c1nc2c(CC(C)C)nn(C)c2c(=O)[nH]1 [Example 46]
Result: No

Ask: What do you have for CCCOc1ccc(S(=O)(=O)Nc2ccncc2)cc1-c1nc2c(CCC)nn(C)c2c(=O)[nH]1 [Example 35] ?
Result: Yes

Ask: Field entry: CCOc1ccc(S(=O)(=O)NCc2cccnc2)cc1-c1nc2c(CC(C)C)nn(C)c2c(=O)[nH]1 [Example 48]
Result: No

====

tested on: rats; assay: Penile erection test using rats; assay type: in vivo, rat; settings: oral single dose 10 mg/kg in 0.5% methyl cellulose, observed for 2 hours
Response field label takes satisfied when PEI (penile erection index) is strictly below 200 and not satisfied in all other cases.

1. CCCOc1ccc(S(=O)(=O)NCC2CCN(CC)C2)cc1-c1nc2c(CCC)nn(C)c2c(=O)[nH]1 (centres unmarked) [Example 64]: satisfied
2. CCOc1ccc(S(=O)(=O)NCCC2CCCN2C)cc1-c1nc2c(CC(C)C)nn(C)c2c(=O)[nH]1 (centres unmarked) [Example 70]: satisfied

Ask: Report whether reported PEI (penile erection index) is lower than 200 (strictly) for CCCc1nn(C)c2c(=O)[nH]c(-c3cc(S(=O)(=O)Nc4ccc(F)cc4)ccc3OCC)nc12 [Example 26]
Result: satisfied

====

Each entry below carries its recorded solubility pH 5.
test: Solubility in buffer solution in pH=2&5; type: physicochemical; details: citrate-NaOH buffer (pH 5)
Just the number please, in ug/ml, no unit attached.

Below, each entry is followed by its recorded solubility pH 5 result.
1. CCOc1ccc(S(=O)(=O)NCC2CCCN2C)cc1-c1nc2c(CC(C)C)nn(C)c2c(=O)[nH]1 (stereo not shown) [Example 58]: 9003
2. CCCOc1ccc(S(=O)(=O)NCC2CCN(C)C2)cc1-c1nc2c(CCC)nn(C)c2c(=O)[nH]1 (stereo not shown) [Example 60]: 4923
3. CCOc1ccc(S(=O)(=O)NCC2CCN(C)C2)cc1-c1nc2c(CC(C)C)nn(C)c2c(=O)[nH]1 (stereo not shown) [Example 62]: 3596

Please examine the following record next.
Ask: Form field: reported solubility pH 5 of CCCOc1ccc(S(=O)(=O)NCC2CCCN2C)cc1-c1nc2c(CCC)nn(C)c2c(=O)[nH]1 (stereo not shown) [Example 56]
Result: 6361

====

target: Phosphodiesterase-5 enzyme (PDE 5) (Homo sapiens); construct: separated by HPLC (Mono Q anion exchange column) with concentration gradient of 0-500 mM NaCl to elute PDE isozymes; from tissue; host or cells: human corpus cavernosal tissue; test: Test for phosphodiesterase-5 (PDE 5) activity; format: biochemical; conditions: PDE 5 fraction from human corpus cavernosal tissues
The entries below are paired with their reported IC50.
I only need the number, in nM, no unit after it.

Sample records with IC50:
1. CCCOc1ccc(S(=O)(=O)NC2CCN(C)C2)cc1-c1nc2c(CCC)nn(C)c2c(=O)[nH]1 (stereo not shown): 20.9
2. CCCc1nn(CC)c2c(=O)[nH]c(-c3cc(S(=O)(=O)NC4CC4)ccc3OCC)nc12: 79.5

Ask: Find the recorded IC50 belonging to CCCc1nn(CC)c2c(=O)[nH]c(-c3cc(S(=O)(=O)NCc4ccccc4)ccc3OCC)nc12 and report it.
Result: 86

Ask: Then this compound: CCCc1nn(C)c2c(=O)[nH]c(-c3cc(S(=O)(=O)NCC4CCCN4C)ccc3OCC)nc12 (stereo not shown)
Result: 103

====

We begin with a simple list: items and their reported PEI (penile erection index).
system: rats; assay: Penile erection test using rats; format: in vivo, rat; conditions: oral single dose 10 mg/kg in 0.5% methyl cellulose, observed for 2 hours

1) CCCc1nn(CC)c2c(=O)[nH]c(-c3cc(S(=O)(=O)Nc4ccncc4)ccc3OCC)nc12: 200.0 ± 173.2

Ask: For the compound CCCNS(=O)(=O)c1ccc(OCC)c(-c2nc3c(CCC)nn(C)c3c(=O)[nH]2)c1 , what PEI (penile erection index) is on record?
Result: 200.0 ± 0.0

Ask: Field entry: CCCOc1ccc(S(=O)(=O)Nc2ccncc2)cc1-c1nc2c(CCC)nn(C)c2c(=O)[nH]1
Result: 200.0 ± 0.0

Ask: And the next one, CCCOc1ccc(S(=O)(=O)NC2CC2)cc1-c1nc2c(CCC)nn(C)c2c(=O)[nH]1 ?
Result: 100 ± 0

====

target: Phosphodiesterase-5 enzyme (PDE 5) (Homo sapiens, UniProt O76074)
Kindly apply the following: t if IC50 is less than 9 nM, f in every other case.

Use the examples below as a reference point.
1. CCCc1nn(CC)c2c(=O)[nH]c(-c3cc(S(=O)(=O)Nc4ccc(F)cc4)ccc3OCC)nc12: f
2. CCCOc1ccc(S(=O)(=O)NCc2ccccn2)cc1-c1nc2c(CCC)nn(C)c2c(=O)[nH]1: f
3. CCCOc1ccc(S(=O)(=O)Nc2ccncc2)cc1-c1nc2c(CCC)nn(C)c2c(=O)[nH]1: t

Ask: Please check: IC50 for CCCc1nn(C)c2c(=O)[nH]c(-c3cc(S(=O)(=O)NC(C)C)ccc3OCC)nc12 , strictly under 9 nM or not?
Result: t

Ask: Entry to check: CCCOc1ccc(S(=O)(=O)NCC2CCN(C)C2)cc1-c1nc2c(CCC)nn(C)c2c(=O)[nH]1 (centres unmarked)
Result: f

Ask: Again, but for CCOc1ccc(S(=O)(=O)Nc2ccncc2)cc1-c1nc2c(CC(C)C)nn(C)c2c(=O)[nH]1
Result: t

====

Biological target: Phosphodiesterase-3 enzyme (PDE 3) (Oryctolagus cuniculus, UniProt G1ST54)
Sequence (G1ST54 1-1128): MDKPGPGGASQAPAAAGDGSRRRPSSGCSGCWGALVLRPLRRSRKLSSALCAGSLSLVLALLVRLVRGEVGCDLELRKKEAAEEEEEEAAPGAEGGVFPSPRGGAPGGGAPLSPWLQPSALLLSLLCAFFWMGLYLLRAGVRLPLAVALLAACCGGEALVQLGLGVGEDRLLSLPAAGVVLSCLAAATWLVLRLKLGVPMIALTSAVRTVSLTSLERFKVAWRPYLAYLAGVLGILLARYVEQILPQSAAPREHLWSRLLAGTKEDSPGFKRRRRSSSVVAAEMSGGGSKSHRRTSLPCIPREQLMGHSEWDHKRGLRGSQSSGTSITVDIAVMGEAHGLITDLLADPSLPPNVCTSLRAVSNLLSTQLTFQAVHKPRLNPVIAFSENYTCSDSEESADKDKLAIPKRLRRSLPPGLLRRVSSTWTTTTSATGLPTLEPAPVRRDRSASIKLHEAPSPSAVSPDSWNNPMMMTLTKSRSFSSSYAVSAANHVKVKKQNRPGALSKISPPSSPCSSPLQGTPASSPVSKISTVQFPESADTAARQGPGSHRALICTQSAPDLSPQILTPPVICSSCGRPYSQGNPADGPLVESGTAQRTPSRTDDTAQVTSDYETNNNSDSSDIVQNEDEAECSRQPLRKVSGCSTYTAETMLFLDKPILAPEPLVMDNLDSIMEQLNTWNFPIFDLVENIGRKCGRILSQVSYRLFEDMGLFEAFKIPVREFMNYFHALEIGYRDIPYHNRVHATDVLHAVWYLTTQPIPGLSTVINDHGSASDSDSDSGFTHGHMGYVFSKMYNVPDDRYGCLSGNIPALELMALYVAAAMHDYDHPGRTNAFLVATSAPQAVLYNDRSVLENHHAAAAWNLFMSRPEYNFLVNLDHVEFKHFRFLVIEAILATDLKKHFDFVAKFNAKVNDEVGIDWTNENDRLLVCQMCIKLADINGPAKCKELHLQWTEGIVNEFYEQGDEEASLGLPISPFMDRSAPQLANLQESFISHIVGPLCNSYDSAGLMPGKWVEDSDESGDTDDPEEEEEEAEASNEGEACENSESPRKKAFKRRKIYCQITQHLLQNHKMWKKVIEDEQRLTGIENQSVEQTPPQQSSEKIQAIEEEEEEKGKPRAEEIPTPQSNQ
metric: IC50

Ask: Item CCCOc1ccc(S(=O)(=O)NCC2CCN(C)C2)cc1-c1nc2c(CCC)nn(C)c2c(=O)[nH]1 (stereo not drawn) has what recorded IC50?
Result: > 199 µM

Ask: Now consider CCOc1ccc(S(=O)(=O)NC2CCN(C)C2)cc1-c1nc2c(CC(C)C)nn(C)c2c(=O)[nH]1 (stereo not drawn) and answer again.
Result: > 205 µM

Ask: Consider next the compound CCCOc1ccc(S(=O)(=O)NCc2ccccn2)cc1-c1nc2c(CCC)nn(C)c2c(=O)[nH]1 in the same way.
Result: > 201 µM

Attribution: patent US6583147B1
